Each item that follows carries a reported Caco2 Papp (10^-6 cm/sec).
system: Caco-2 cells; assay: Membrane permeability test using Caco-2 cells with preincubation; assay type: in vitro ADME; details: Caco-2 cells, preincubation 20 to 24 hours; apical FaSSIF/HBSS 1% DMSO pH 6.0, basal HBSS 4% BSA pH 7.4; basal sample at 180 minutes
Starred links: 1 amine or outer side, 2 acyl side, 3 side chain; linkers in the order of their positions; H or OH if unused. Positions of bridges follow the written chain, without caps; N, C: chain ends. Non-standard residues stand in square brackets, D forms with d. Residues, ends and D or L forms follow the SMILES beside them. *: point of attachment. NMedβ3hAla = C[C@H](CC(=O)[*:2])N(C)[*:1]; NMeF = CN[C@@H](Cc1ccccc1)C(=O)O; NMeGABA = CN(CCCC(=O)[*:2])[*:1]; NMeI = CC[C@H](C)[C@H](NC)C(=O)O; hPhe = N[C@@H](CCc1ccccc1)C(=O)O; NMeβAla = CN(CCC(=O)[*:2])[*:1]; NMeL = CN[C@@H](CC(C)C)C(=O)O; NMeV = CN[C@H](C(=O)O)C(C)C; NMeAbu = CC[C@H](NC)C(=O)O; NMeA = CN[C@@H](C)C(=O)O; Piperidide = C1CCN(*)CC1; Abu = CC[C@H](N)C(=O)O; Sar = CNCC(=O)O; tBu = CC(C)(C)*

- Compound: "CC[C@H](C)[C@@H]1NC(=O)[C@H](CC(C)C)N(C)C(=O)C[C@@H](C(=O)N2CCCCC2)NC(=O)[C@H](Cc2ccccc2)N(C)C(=O)[C@H](C(C)C)NC(=O)[C@@H]2CCCN2C(=O)[C@H]([C@@H](C)CC)NC(=O)[C@H](CC)N(C)C(=O)[C@H](C(C)C)N(C)C(=O)[C@H](CC(C)C)NC(=O)[C@H](CC(C)C)N(C)C(=O)[C@H]([C@@H](C)O)NC(=O)[C@H](Cc2ccccc2)NC(=O)CN(C)C1=O [pd029] ([NMeL]I[Sar]FT[NMeL]L[NMeV][NMeAbu]IPV[NMeF]D-Piperidide; lactam N-14)"
  Study system: "Caco-2 cells"
  Caco2 Papp (10^-6 cm/sec): "0.02 10^-6 cm/sec"
- Compound: "CC[C@H](C)[C@@H]1NC(=O)[C@H](C)N(C)C(=O)[C@H]([C@@H](C)O)NC(=O)[C@H](Cc2ccccc2)N(C)C(=O)[C@H](COC(C)(C)C)NC(=O)[C@H](CC(C)C)N(C)C(=O)[C@H](CCc2ccccc2)NC(=O)[C@@H]2CCCN2C(=O)[C@H]([C@@H](C)CC)NC(=O)[C@H](CC(C)C)N(C)C(=O)CCCN(C)C(=O)C[C@@H](C(=O)N2CCCCC2)NC(=O)[C@H](CC(C)C)N(C)C1=O [pd102] ([NMeGABA][NMeL]IP[hPhe][NMeL]S(tBu)[NMeF]T[NMeA]I[NMeL]D-Piperidide; lactam N-13)"
  Study system: "Caco-2 cells"
  Caco2 Papp (10^-6 cm/sec): "0.09 10^-6 cm/sec"
- Compound: "CC[C@@H]1NC(=O)[C@H](Cc2ccccc2)N(C)C(=O)[C@H](C)N(C)C(=O)[C@H](CC(C)C)N(C)C(=O)[C@H](CC(C)C)NC(=O)CCCN(C)C(=O)C[C@@H](C(=O)N2CCCCC2)NC(=O)[C@H](CC(C)C)N(C)C(=O)[C@H](C)N(C)C(=O)[C@H]([C@@H](C)O)NC(=O)[C@H](CC(C)C)N(C)C(=O)[C@H](COC(C)(C)C)NC(=O)[C@H](Cc2ccccc2)N(C)C1=O [pd109] ([NMeGABA]L[NMeL][NMeA][NMeF][Abu][NMeF]S(tBu)[NMeL]T[NMeA][NMeL]D-Piperidide; lactam N-13)"
  Study system: "Caco-2 cells"
  Caco2 Papp (10^-6 cm/sec): "0.83 10^-6 cm/sec"

Continue with the next compound.
## Task State the recorded Caco2 Papp (10^-6 cm/sec) for this entry: CC[C@@H]1NC(=O)[C@H](CC(C)C)N(C)C(=O)[C@H](COC(C)(C)C)NC(=O)[C@H]([C@@H](C)CC)N(C)C(=O)[C@H](CCc2ccccc2)NC(=O)[C@H](Cc2ccccc2)N(C)C(=O)[C@H]([C@@H](C)CC)NC(=O)[C@H](CC(C)C)N(C)C(=O)[C@H](CC(C)C)N(C)C(=O)CCN(C)C(=O)C[C@@H](C)N(C)C(=O)CN(C)C(=O)[C@H](CC(C)C)N(C)C(=O)[C@@H]2CCCN2C1=O [pd066] (cyclo([Abu]P[NMeL][Sar][NMedβ3hAla][NMeβAla][NMeL][NMeL]I[NMeF][hPhe][NMeI]S(tBu)[NMeL]))
## Result 0.33 10^-6 cm/sec
